All figures here come from PubChem BioAssay (NCI).

Assay: NCI Yeast Anticancer Drug Screen. Data for the sgs1 mgt1 strain (AID 161);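 also: 0% = growth of cultures given vehicle only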
Details: S. cerevisiae sgs1 mgt1 strain, at 50.0 µM, active compounds read high
Compounds without any hit were thinned out: in the full panel of roughly 79,000, 15% have a hit.
Recorded growth inhibition, one value per entry.
// units = %; emit number, no label

Look over these answered cases.
C=CC(C)C1C(C)C(Cl)CC(Cl)C1OC(=O)c1ccccc1 (stereo not drawn); 10.7
OC1CCCSc2ccccc21 (stereo not drawn); -4.8
O=C1CCC2CCc3cccc1c32 (stereo not drawn); -12.3
NC(=S)Nc1ccccc1-c1ccccc1; 25
CCCC1OCC(CC)([N+](=O)[O-])CO1 (stereo not drawn); 18.1

Report growth inhibition, nothing else, for this compound: "[N-]=[N+]=Nc1ccc2[nH]c3ccccc3c(=O)c2c1" 16.9

Give me measured growth inhibition, please, for this compound: "Cc1ccc(C(=O)Nc2ccc3c(c2)Cc2ccccc2-3)cc1" -7.45

Provide growth inhibition value for the following compound: "Cc1nc(-n2nc(-c3ccccc3)cc2-c2ccccc2)sc1C(=O)/C=C/c1ccccc1" 14.7

Give a short answer stating reported growth inhibition for "CC(=O)NCS(=O)(=O)O" . -0.9

Determine its reported growth inhibition: "Cc1[nH]c(=O)c2oc3cc4ccccc4cc3c2c1C(=O)O" -24.1

Write down growth inhibition measured for item "O=C(n1[nH]c(=O)n(-c2ccc([N+](=O)[O-])cc2)c1=O)C(Cl)(Cl)Cl" 22.5

Given CCNC(CC(N)=O)C(=O)O (stereo not drawn) , respond with its growth inhibition. 0.15

Please report growth inhibition for the following compound: "C/C(=C\N1CCCCC1)C(=O)c1ccc(F)cc1" -4.65

Provide measured growth inhibition value, entry: CC(=O)OC1OC(COC(c2ccccc2)(c2ccccc2)c2ccccc2)C(OCc2ccccc2)C(OCc2ccccc2)C1OC(C)=O (stereo not drawn) -21.1

Tell me measured growth inhibition for CC1(C)C(CC(=O)O)CCCC1CC(=O)O (stereo not drawn) please. 4.15

Give reported growth inhibition value for C1=NC(c2ccccc2)=CN(C2CCCCCCC2)C1(c1ccccc1)C1CCCCCCC1 (stereo not drawn) 40.2

Hello, please tell me recorded growth inhibition for this one: CC(C)CCCC(C)C1CCC2(C)C3=C(CCC12C)C1(C)CCC(=O)C(C)(C)C1CC3 (stereo not drawn) 83.5

Answer with the recorded growth inhibition for the compound listed here: "C/C=C/C[P+](Cc1ccccc1)(c1ccccc1)c1ccccc1" 26.2

Read the entry "COC(=O)/N=c1\cc(N2CC=CCC2)nc(N)n1O" and write its reported growth inhibition. -21.2

Quote growth inhibition reported for Cn1cc(C2NC(=O)c3ccccc3N2)c2ccccc21 (stereo not drawn) please. -7.1

Answer with the recorded growth inhibition for the compound listed here: "N#CCc1ccccc1S(=O)(=O)O" -3.45

Return value of growth inhibition for input "O=C(Nc1ccccc1C(=O)N/N=C/c1ccccc1O)c1ccccc1Cl" , no commentary. 91.4

---

Assay: NCI Yeast Anticancer Drug Screen. Data for the mec2-1 strain (AID 157)
Conditions: S. cerevisiae mec2-1 strain, at 50.0 µM, active compounds read high
This is part of a sample that, as a whole, favours compounds with a hit. Of some 79,000 tested, about 15% had one in any assay.
measured.endpoint: growth inhibition (%)
Value expressed in %; do not type the unit.

// known answers, use as guide
COc1cc(C)c(N)cc1N; -16.9
O=Cc1c(Cl)c(Cl)c(Cl)c(Cl)c1Cl; 6.3

State its growth inhibition for this compound: "Cc1ccc(C(=O)NC(C)C)cc1N=NN(C)C" -42.1

---

Each item that follows carries a reported growth inhibition.
Assay: NCI Yeast Anticancer Drug Screen. Data for the bub3 strain (AID 167)
Settings: S. cerevisiae bub3 mutant strain, at 50.0 µM, active compounds read high
About 79,000 compounds went through this panel and 15% of them were active in at least one assay; those are over-represented in the sample as a whole.
// return numeric value only (unit: %, not printed)

Field: example entries. Status: answers known.
CCC(c1ccc(Cl)cc1)N(CC)c1ccccn1 (centres undefined); 3.5
CC1C(=O)N2C(=O)C(C)C(C)C(=O)N2C(=O)C1C (centres undefined); 3.85
OC(c1cccc(OCc2ccccc2)c1)c1ccccn1 (centres undefined); 2.15

Name the recorded growth inhibition of the compound listed here: "O=CNc1ncccn1" -2.2

Annotate the compound CC1(CO)CSC(Nc2ccc(F)cc2)=N1 (centres undefined) with its measured growth inhibition. 2.4

For the compound "Cc1ccccc1C(=O)NNC(=O)c1cccc2ccccc12" , report growth inhibition. 0.45

Report growth inhibition for "CCOC(=O)CCC(=O)N(CC)CC" -10.9

Retrieve growth inhibition measured for OC1Cn2cc(Br)c[n+]2C1 (centres undefined) and print it. -2

Return growth inhibition (reported value) for this compound: CCCCCCCC/C=C\CCCCCCCC(=O)OCC1CCCO1 (centres undefined) 33.6

Look up growth inhibition of "Cn1c(=O)c2c(n(C)c1=O)[n+]([O-])c([N+]1([O-])CCOCC1)n2C" and report it. -4.15

For the compound CCc1cccc(C(C)C)c1NC(=O)C(=O)C(Cc1nc2ccccc2[nH]c1=O)C(=O)OC (centres undefined) , give its reported growth inhibition. 2.4

Identify measured growth inhibition corresponding to "CC1=CC(C)(C)N=C2SC(c3ccc(Cl)cc3)=NN12" 13.2

---

Property: growth inhibition; scope: individual compounds
Experiment: NCI Yeast Anticancer Drug Screen. Data for the sgs1 mgt1 strain (AID 161);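 also: 0% = growth of cultures given vehicle only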
Settings: S. cerevisiae sgs1 mgt1 strain, at 50.0 µM, active compounds read high
About 79,000 compounds went through this panel and 15% of them were active in at least one assay; those are over-represented in the sample as a whole.
Please state the figure in %; there is no need to write the unit.

For the compound "CCc1c(Sc2ccccn2)n(COCc2ccccc2)c(=O)[nH]c1=O" , give its reported growth inhibition. -24.9

Supply growth inhibition value. Item: OC(c1cccc(OCc2ccccc2)c1)c1ccccn1 (centres undefined) 2.15

# return recorded growth inhibition for input "Cc1ccc(S(=O)(=O)c2ccc(C)cc2[N+](=O)[O-])c([N+](=O)[O-])c1" -25.4

For the compound "Cc1ccc(C(=O)/C=C\c2ccc(Cl)c(Cl)c2)cc1" , give its reported growth inhibition. 23.3

---

Experiment: NCI Yeast Anticancer Drug Screen. Data for the mlh1 rad18 strain (AID 175)
Settings: S. cerevisiae mlh1 rad18 strain growth inhibition; at 50.0 µM
This is part of a sample that, as a whole, favours compounds with a hit. Of some 79,000 tested, about 15% had one in any assay. The source made the active and inactive calls. No stated cut-off is given here; in the data, active means growth inhibition above about 70%; inactive means the rest.
The categories you may choose from are YES = active, NO = inactive

N#CC(C#N)=C(N)/C(C#N)=C/c1ccc2[nH]ccc2c1; NO

Please share the test call associated with CN(C)CC1CCCCCCC1=O (stereo not drawn) . NO

What is the recorded call for this compound in the test? "CSc1nc(NC(=O)O)c(N(C(C)=O)C(=O)O)c(=O)n1C" NO

Could you kindly confirm the outcome this assay logged for COc1ccc(C23CCCC(=O)C2C2C(=O)CCCC23c2ccc(OC)cc2)cc1 (stereo not drawn) ? NO

Record request — test call for "COc1ccc(C(=O)C(c2ccccc2)c2ccccc2)cc1" NO

Look up the recorded call for CCOC(=O)C(NC(=O)c1cccc(Cl)c1)(Nc1ccc(S(=O)(=O)Nc2cc(C)on2)cc1)C(F)(F)F (stereo not drawn) in this test. YES

Recorded call for O=C(O)C1CCC2SC(F)(F)C(F)(F)C2C1 (stereo not drawn) ? NO

Dear all, I need the recorded test outcome for "CCNCCCCNCC" , thank you. NO

Lab log entry: CCCC(CO)OC(=O)Nc1ccc(-c2ccccc2)cc1 (stereo not drawn) — outcome as called in the assay? NO

Per the assay record, what outcome was assigned to "COC(=O)OC/C=C\COC(=O)OC" ? NO

Hi, sorry to bother you, what did the test record for "CC(=O)/C(=C\c1ccc([N+](=O)[O-])cc1)C(=O)CCN(C)C" ? NO

Check the results log: what was the call for "Cc1ccc2ccccc2c1Cc1c(C=O)[nH]c(=S)[nH]c1=O" ? YES

Query: recorded result category for "O=C1NC(N2CCCCC2)=N/C1=C\c1cccs1" in this test NO

---

The following molecules are shown together with reported growth inhibition values.
Experiment: NCI Yeast Anticancer Drug Screen. Data for the rad50 strain (AID 155);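 also: 0% = growth of vehicle-only cultures of the same strain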
Conditions: S. cerevisiae rad50 strain growth inhibition; at 50.0 µM; active compounds read high
Experimental: Growth inhibition of yeast strains with defined genetic alterations is measured as a screen for potential anti-cancer activity. Selected strains with alterations in DNA damage repair or cell cycle control were exposed to compounds and growth inhibition was measured relative to vehicle treated controls. The strain used in this assay is rad50
Compounds without any hit were thinned out: in the full panel of roughly 79,000, 15% have a hit. Activity calls are given as the source filed them. Rule as the data show it: active = growth inhibition above about 70%; inactive = the rest.

Worked cases, growth inhibition given:
CCCCOC(=O)Nc1ccccc1OCC; 6.7% (inactive)
CC(=O)ON(C(C)=O)c1ccc(C(N)=O)cc1; -16.6% (inactive)
CCCCCCCCCCCCCCCC(=O)OCC(COP(=O)(O)OC1CCC2(C)C(=CCC3C2CCC2(C)C(C(C)CCCC(C)C)CCC32)C1)OC(=O)CCCCCCCCCCCCCCC (centres undefined); 1.9% (inactive)

Tell me measured growth inhibition for "Cc1c2ccccc2c(C)n2c1nc1cc3ccccc3cc12" please. 9.8% (inactive)

Name the recorded growth inhibition of the molecule listed here: CC(C)CN(CC(C)C)C(=O)C1CCCC[C@@H]1C(=O)O (some centres undefined) 16.9% (inactive)

Identify measured growth inhibition corresponding to CCN1CCC(CC(c2ccccc2)c2ccccc2)C1 (centres undefined) 19.4% (inactive)

Indicate the recorded growth inhibition value for this molecule: CC12CCC(O)CC1=CCC1C2CCC2(C)C(C(O)CC(O)(C(F)(F)F)C(F)(F)F)CCC12 (centres undefined) 30.1% (inactive)

Using the record for "Cc1ccc2c3c1CCCN3CCC2" , state its measured growth inhibition. 3.45% (inactive)

Tell me measured growth inhibition for "CSc1nc(Cl)nc2[nH]ncc12" please. 11.3% (inactive)
